# target_system: human liver FBPase (Homo sapiens)
# procedure_text: FBPase assay (malachite green phosphate release)
# run_parameters: recombinant human liver FBPase, 50 μM fructose-1,6-bisphosphate
# Procedure: The following tests were carried out for evaluating the inhibitory activity of the compounds of the present invention against human liver FBPase (Swissprot Data base reference PO9467, entry F16P_HUMAN). Human liver FBPase cDNA (NM_000507) was purchased from Origene Technologies, Inc, subcloned in a vector for expression in E. Coli., and sequenced. […] Purity of the enzyme preparation was >90% as assessed by Mass spectrometry. […]
pIC50: −log10 of the molar value.
observation_type: pIC50

The examples below pair each entry with its known result.
- COCCc1sc(S(=O)(=O)NC(=O)Nc2cc(SC)cc(C(N)=O)n2)cc1C: 6.10
- COC(=O)c1cc(C(F)(F)F)cc(NC(=O)NS(=O)(=O)c2csc(C)c2)n1: 5.64

A = COCCc1sc(S(=O)(=O)NC(=O)Nc2cc(SC)cc(O)n2)cc1C
B = CCOc1cc(N)nc(NC(=O)NS(=O)(=O)c2cc(C)c(CCOC)s2)c1
C = CNC(=O)Nc1cc(OC)cc(NC(=O)NS(=O)(=O)c2cc(C)c(CC(C)C)s2)n1
Parameters: sort_field (pIC50), sort_dir (desc). The labels, placed in the requested order, form the answer.
C, B, A
(C: 7.10, B: 5.66, A: 5.39)

1 = COCCc1sc(S(=O)(=O)NC(=O)Nc2cc(SC)cc(C(N)=NO)n2)cc1C
2 = COC(=O)c1cc(C(F)(F)F)cc(NC(=O)NS(=O)(=O)c2cc(C)c(CCOC(C)=O)s2)n1
Please indicate which entry, 1 or 2 , has the lower recorded pIC50 value. Refer to your chosen item by its label in the answer.
1

----------
# target_system: human liver FBPase (Homo sapiens, UniProt P09467)
# Sequence (P09467 2-338 limits assumed): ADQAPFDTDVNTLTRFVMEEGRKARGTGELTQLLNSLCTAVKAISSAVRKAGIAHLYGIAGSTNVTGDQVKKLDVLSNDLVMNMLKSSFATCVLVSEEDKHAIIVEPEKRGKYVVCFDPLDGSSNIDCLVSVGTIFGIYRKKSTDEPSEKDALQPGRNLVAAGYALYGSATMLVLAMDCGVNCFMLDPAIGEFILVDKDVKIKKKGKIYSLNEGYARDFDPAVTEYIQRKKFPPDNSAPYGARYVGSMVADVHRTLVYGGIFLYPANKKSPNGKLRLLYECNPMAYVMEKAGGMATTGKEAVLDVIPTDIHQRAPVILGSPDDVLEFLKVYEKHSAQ
# procedure_text: FBPase assay (malachite green phosphate release)
# run_parameters: recombinant human liver FBPase, 50 μM fructose-1,6-bisphosphate
pIC50: −log10 of the molar value.
observation_type: pIC50

The examples below pair each entry with its known result.
* COCCc1sc(S(=O)(=O)NC(=O)Nc2cc(SC)cc(-c3noc(C)n3)n2)cc1C | 5.79
* COCCc1sc(S(=O)(=O)NC(=O)Nc2cc(SC)cc(C)n2)cc1C | 5.75
* COCCc1sc(S(=O)(=O)NC(=O)Nc2cc(Br)cc(N3CCOCC3)n2)cc1C | 6.37
* COCCc1sc(S(=O)(=O)NC(=O)Nc2cc(SC)cc(NC(N)=O)n2)cc1C | 6.73
* COCCc1sc(S(=O)(=O)NC(=O)Nc2cc(OC)cc(NC(=O)OC)n2)cc1C | 5.68

1 = COCCc1sc(S(=O)(=O)NC(=O)Nc2cc(C(F)(F)F)cc(C)n2)cc1C
2 = CNC(=O)Nc1cc(C(N)=NO)cc(NC(=O)NS(=O)(=O)c2cc(C)c(CCOC)s2)n1
Which entry has a larger number for pIC50, 1 or 2 ? Refer to your chosen item by its label in the answer.
1

I = COCCc1sc(S(=O)(=O)NC(=O)Nc2cc(C#N)cc(N)n2)cc1C
II = CC(=O)OCCc1sc(S(=O)(=O)NC(=O)Nc2cc(C(F)(F)F)c(F)c(N)n2)cc1C
Which entry has a larger number for pIC50, I or II ? Refer to your chosen item by its label in the answer.
II
(II: 6.18, I: 5.67)

a = COCCc1sc(S(=O)(=O)NC(=O)Nc2cc(Br)cc(NCc3ccc(OC)cc3OC)n2)cc1C
b = CNC(=O)Nc1cc(OC)cc(NC(=O)NS(=O)(=O)c2cc(C)c(OCCOC)s2)n1
Which entry has a larger number for pIC50, a or b ? Refer to your chosen item by its label in the answer.
b
(b: 6.24, a: 5.63)

1 = COCCc1sc(S(=O)(=O)NC(=O)Nc2cc(SC)cc(NCCCC(=O)OC)n2)cc1C
2 = Cc1csc(S(=O)(=O)NC(=O)Nc2cc(C(F)(F)F)cc(C)n2)c1
3 = CCOc1cc(NC(=O)NS(=O)(=O)c2cc(C)c(CCOC)s2)nc(NC(=O)N(C)C)c1
Parameters: sort_field (pIC50), sort_dir (desc). The labels, placed in the requested order, form the answer.
2, 1, 3
(2: 6.14, 1: 5.76, 3: 5.52)

P = COCCc1sc(S(=O)(=O)NC(=O)Nc2cc(OC)cc(NC(=O)N(C)C)n2)cc1C
Q = COCCc1sc(S(=O)(=O)NC(=O)Nc2cc(SC)cc(NCCO)n2)cc1C
Which entry has a larger number for pIC50, P or Q ? Refer to your chosen item by its label in the answer.
Q

----------
# target_system: human liver FBPase (Homo sapiens, UniProt P09467)
# Construct: made in house; host or cells: E. coli
# procedure_text: FBPase assay (malachite green phosphate release)
# Format: biochemical
# run_parameters: recombinant human liver FBPase, 50 μM fructose-1,6-bisphosphate
pIC50: −log10 of the molar value.
observation_type: pIC50

The examples below pair each entry with its known result.
- CNC(=O)Nc1cc(SC)cc(NC(=O)NS(=O)(=O)c2csc(C)c2)n1: 7.02
- COCCc1sc(S(=O)(=O)NC(=O)Nc2cc(SC)cc(Br)n2)cc1C: 6.59
- COCCc1sc(S(=O)(=O)NC(=O)Nc2cc(C)cc(C3CCc4ccccc4C3)n2)cc1C (centres unmarked): 6.03
- Cc1cc(S(=O)(=O)NC(=O)Nc2cc(C(F)(F)F)ccn2)sc1CCO: 6.04
- Cc1cccc(S(=O)(=O)NC(=O)Nc2cc(Br)cc(NCC(F)F)n2)c1: 6.21

A = CC(=O)OCCc1sc(S(=O)(=O)NC(=O)Nc2cc(C(F)(F)F)ccn2)cc1C
B = CCOC(=O)c1cc(N)nc(NC(=O)NS(=O)(=O)c2cc(C)c(CCOC)s2)c1
C = CNC(=O)Nc1cc(OC)cc(NC(=O)NS(=O)(=O)c2cc3cc(OC)ccc3s2)n1
Let's sort these by pIC50, smallest first. Go ahead? The labels, placed in the requested order, form the answer.
B, A, C
(B: 5.47, A: 6.09, C: 6.83)

----------
# target_system: human liver FBPase (Homo sapiens, UniProt P09467)
# procedure_text: FBPase assay (malachite green phosphate release)
# run_parameters: recombinant human liver FBPase, 50 μM fructose-1,6-bisphosphate
observation_type: IC50 (nM)

a = COCCc1sc(S(=O)(=O)NC(=O)Nc2cc(OC)cc(-c3noc(C)n3)n2)cc1C [Compound 116]
b = COCCc1sc(S(=O)(=O)NC(=O)Nc2cc(Br)cc(NCC(F)F)n2)cc1Cl [Compound 15]
c = COC(=O)c1cc(C(F)(F)F)cc(NC(=O)NS(=O)(=O)c2cc(C)c(CCO)s2)n1 [Compound 105]
d = COCCc1sc(S(=O)(=O)NC(=O)Nc2cc(C(F)(F)F)cc(N)n2)cc1C [Compound 85]
Sort by IC50 with smallest numbers at the start of the list. The labels, placed in the requested order, form the answer.
b, d, a, c
(b: 175 nM, d: 756 nM, a: 1480 nM, c: 2610 nM)

----------
# target_system: human liver FBPase (Homo sapiens, UniProt P09467)
# procedure_text: FBPase assay (malachite green phosphate release)
# run_parameters: recombinant human liver FBPase, 50 μM fructose-1,6-bisphosphate
# Description: The following tests were carried out for evaluating the inhibitory activity of the compounds of the present invention against human liver FBPase (Swissprot Data base reference PO9467, entry F16P_HUMAN). Human liver FBPase cDNA (NM_000507) was purchased from Origene Technologies, Inc, subcloned in a vector for expression in E. Coli., and sequenced. […] Purity of the enzyme preparation was >90% as assessed by Mass spectrometry. […]
observation_type: IC50 (µM)

The examples below pair each entry with its known result.
* CNC(=O)Nc1cc([S+](C)[O-])cc(NC(=O)NS(=O)(=O)c2cc(C)c(CCOC)s2)n1 (stereo not shown) | 1.6
* CNC(=O)Nc1cc(OC)cc(NC(=O)NS(=O)(=O)c2cc3ccc(OC)cc3s2)n1 | 0.132
* CCOc1cc(NC(=O)NC)nc(NC(=O)NS(=O)(=O)c2cc(C)c(CCOC)s2)c1 | 0.494

A = O=C(Nc1cc(Br)ccn1)NS(=O)(=O)c1cccc(Cl)c1
B = Cc1cc(S(=O)(=O)NC(=O)Nc2cc(C(F)(F)F)c(F)c(N)n2)sc1CCO
C = O=C(Nc1cc(Br)cc(NCC(F)F)n1)NS(=O)(=O)c1cccc(Cl)c1
D = COCCc1sc(S(=O)(=O)NC(=O)Nc2cc(OC)cc(NC(N)=O)n2)cc1C
Let's sort these by IC50, smallest first. Go ahead? The labels, placed in the requested order, form the answer.
D, B, C, A
(D: 0.259 µM, B: 0.429 µM, C: 0.696 µM, A: 1.55 µM)

I = CNC(=O)Nc1cc(-c2noc(C)n2)cc(NC(=O)NS(=O)(=O)c2cc(C)c(CCOC)s2)n1
II = CSc1cc(N)nc(NC(=O)NS(=O)(=O)c2csc(C)c2)c1
III = CNC(=O)Nc1cc(SC)cc(NC(=O)NS(=O)(=O)c2cc(C)c(CCOC)s2)n1
IV = COCCc1sc(S(=O)(=O)NC(=O)Nc2cc(SC)cc(C(=O)O)n2)cc1C
Parameters: sort_field (IC50), sort_dir (desc). The labels, placed in the requested order, form the answer.
IV, I, II, III

I = Cc1cc(S(=O)(=O)NC(=O)Nc2cc(C(F)(F)F)cc(CO)n2)sc1CCO
II = COc1cc(NC(N)=O)nc(NC(=O)NS(=O)(=O)c2csc(C)c2)c1
Please indicate which entry, I or II , has the lower recorded IC50 value. Refer to your chosen item by its label in the answer.
II
(II: 0.23 µM, I: 1.5 µM)

The measurements presented in this section are drawn from patent US8163778B2.
